system: rodent lifetime carcinogenesis bioassay, tumor incidence TD50; assay: carcinogenic potency in animals, long-term in vivo studies, CPDB compilation (AID 1745844); conditions: rat; strain Fischer 344; males; in feed; site: liver; lesion: hepatocellular adenoma + hepatocellular carcinoma + neoplastic nodule; dosed 104 weeks; study length 105 weeks
measured_endpoint: TD50
Include the unit after the number when you answer.

molecule=O=Nc1ccc(NO)cc1 test_system="rodent lifetime carcinogenesis bioassay, tumor incidence TD50" measured_endpoint=TD50 obs_value="1130 mg/kg/day"

Turning now to a further record.
Input: So what's the measured TD50 for this one? "COc1ccc(C)cc1N"
Output: 443 mg/kg/day

* * *

test system: rodent lifetime carcinogenesis bioassay, tumor incidence TD50; test: carcinogenic potency in animals, long-term in vivo studies, CPDB compilation (AID 1745844); settings: rat; strain F344/DuCrj; males; inhaled; site: peritoneum; lesion: mesothelioma, malignant; dosed 104 weeks; study length 105 weeks
Active and inactive are the calls of the source. The rule behind the calls is not given here.
measured_endpoint: TD50

Input: So what's the measured TD50 for this one? "CBr"
Output: 40.8 mg/kg/day (inactive)

* * *

test system: rodent lifetime carcinogenesis bioassay, tumor incidence TD50; experiment: carcinogenic potency in animals, long-term in vivo studies, CPDB compilation (AID 1745844); conditions: rat; strain F344/DuCrj; males; in feed; site: skin; lesion: squamous-cell papilloma; dosed 56 weeks; study length 56 weeks
measured_endpoint: TD50 (mg/kg/day)
Express the result in mg/kg/day but write the number alone.

Input: Form field - read-out: TD50; system: rodent lifetime carcinogenesis bioassay, tumor incidence TD50; submitted item: "Cc1cnc2ccc3c(nc(N)n3C)c2n1"
Output: 59.2

* * *

tested on: rodent lifetime carcinogenesis bioassay, tumor incidence TD50; experiment: carcinogenic potency in animals, long-term in vivo studies, CPDB compilation (AID 1745844); conditions: mouse; strain B6C3F1; males; inhaled; site: lymphoreticular system; lesion: histiocytic sarcoma; dosed 80 weeks; study length 105 weeks
measured_endpoint: TD50 (mg/kg/day)
Express the result in mg/kg/day but write the number alone.

Input: Form field - read-out: TD50; system: rodent lifetime carcinogenesis bioassay, tumor incidence TD50; submitted item: "C=CC(=C)C"
Output: 150000

* * *

system: rodent lifetime carcinogenesis bioassay, tumor incidence TD50; test: carcinogenic potency in animals, long-term in vivo studies, CPDB compilation (AID 1745844); conditions: mouse; strain NZO/BlGd; males; in drinking water; site: stomach, squamous; lesion: several types; types named in the paper; dosed 32 weeks; study length 60 weeks
measured_endpoint: TD50

Input: So what's the measured TD50 for this one? "O=NN1CCCCCC1"
Output: 0.448 mg/kg/day

* * *

system: rodent lifetime carcinogenesis bioassay, tumor incidence TD50; assay: carcinogenic potency in animals, long-term in vivo studies, CPDB compilation (AID 1745844); conditions: rat; strain Fischer 344; females; by gavage; site: liver; lesion: neoplastic nodule; dosed 40 weeks; study length 115 weeks
measured_endpoint: TD50

Input: So what's the measured TD50 for this one? "O=NN(CCO)C(=O)NCCCl"
Output: 0.564 mg/kg/day

* * *

test system: rodent lifetime carcinogenesis bioassay, tumor incidence TD50; experiment: carcinogenic potency in animals, long-term in vivo studies, CPDB compilation (AID 1745844); conditions: mouse; strain Charles River CD1; males; in feed; site: lung; lesion: alveolar/bronchiolar adenoma; dosed 104 weeks; study length 104 weeks
Active and inactive are the calls of the source. No rule for the calls is given here.
Listing of recorded TD50 by entry.

compound=O=C(O)CCCC/C=C(\c1ccccc1)c1cccnc1 measured_endpoint=TD50 obs_value="1220 mg/kg/day (inactive)"

Turning now to a further record.
Input: So what's the measured TD50 for this one? O=C(O)C1=NN(c2ccc(S(=O)(=O)O)cc2)C(=O)C1N=Nc1ccc(S(=O)(=O)O)cc1 (configuration not stated)
Output: 42500 mg/kg/day (inactive)

* * *

system: rodent lifetime carcinogenesis bioassay, tumor incidence TD50; assay: carcinogenic potency in animals, long-term in vivo studies, CPDB compilation (AID 1745844); conditions: mouse; strain B6C3F1; females; in feed; site: thyroid gland; lesion: follicular-cell carcinoma; dosed 104 weeks; study length 104 weeks
measured_endpoint: TD50 (mg/kg/day)
Express the result in mg/kg/day but write the number alone.

Input: So what's the measured TD50 for this one? "Cc1cc(C)nc(NS(=O)(=O)c2ccc(N)cc2)n1"
Output: 54800

* * *

tested on: rodent lifetime carcinogenesis bioassay, tumor incidence TD50; test: carcinogenic potency in animals, long-term in vivo studies, CPDB compilation (AID 1745844); conditions: rat; strain Sprague-Dawley; males; by gavage; site: liver; lesion: hepatoma; dosed 59 weeks; study length 129 weeks
measured_endpoint: TD50 (mg/kg/day)
Express the result in mg/kg/day but write the number alone.

Input: So what's the measured TD50 for this one? "C=CCl"
Output: 3.36

* * *

test system: rodent lifetime carcinogenesis bioassay, tumor incidence TD50; experiment: carcinogenic potency in animals, long-term in vivo studies, CPDB compilation (AID 1745844); details: rat; strain Sprague-Dawley; females; in feed; site: forestomach; lesion: squamous-cell papilloma; dosed 46 weeks; study length 75 weeks
measured_endpoint: TD50 (mg/kg/day)
Express the result in mg/kg/day but write the number alone.

Input: Form field - read-out: TD50; system: rodent lifetime carcinogenesis bioassay, tumor incidence TD50; submitted item: "NNc1nc(-c2ccc([N+](=O)[O-])cc2)cs1"
Output: 9

* * *

tested on: rodent lifetime carcinogenesis bioassay, tumor incidence TD50; experiment: carcinogenic potency in animals, long-term in vivo studies, CPDB compilation (AID 1745844); conditions: mouse; strain B6C3F1; females; by gavage; site: subcutaneous tissue; lesion: sarcoma, NOS; dosed 103 weeks; study length 105 weeks
Calls of active or inactive are those of the source. How the calls were made is not given here.
measured_endpoint: TD50

Input: Form field - read-out: TD50; system: rodent lifetime carcinogenesis bioassay, tumor incidence TD50; submitted item: "O=P(O)(O)O"
Output: 1490 mg/kg/day (inactive)

* * *

tested on: rodent lifetime carcinogenesis bioassay, tumor incidence TD50; assay: carcinogenic potency in animals, long-term in vivo studies, CPDB compilation (AID 1745844); settings: mouse; strain Charles River CD1; females; in feed; site: lung; lesion: adenoma; dosed 109 weeks; study length 109 weeks
Calls of active or inactive are those of the source. No rule for the calls is given here.
measured_endpoint: TD50

Input: So what's the measured TD50 for this one? "O=c1ccc2ccccc2o1"
Output: 4500 mg/kg/day (inactive)

* * *

system: rodent lifetime carcinogenesis bioassay, tumor incidence TD50; assay: carcinogenic potency in animals, long-term in vivo studies, CPDB compilation (AID 1745844); conditions: mouse; strain B6C3F1; females; in feed; site: ovary; lesion: granulosa-cell tumor, benign + granulosa-cell tumor, malignant; dosed 103 weeks; study length 105 weeks
measured_endpoint: TD50

Input: So what's the measured TD50 for this one? "O=C1CN(N=Cc2ccc([N+](=O)[O-])o2)C(=O)N1"
Output: 2560 mg/kg/day

* * *

test system: rodent lifetime carcinogenesis bioassay, tumor incidence TD50; experiment: carcinogenic potency in animals, long-term in vivo studies, CPDB compilation (AID 1745844); settings: rat; strain F344/DuCrj; males; in feed; site: liver; lesion: hepatocellular tumor; dosed 95 weeks; study length 95 weeks
measured_endpoint: TD50

Input: So what's the measured TD50 for this one? "CCCCOCCOCCOCc1cc2c(cc1CCC)OCO2"
Output: 468 mg/kg/day

* * *

system: rodent lifetime carcinogenesis bioassay, tumor incidence TD50; experiment: carcinogenic potency in animals, long-term in vivo studies, CPDB compilation (AID 1745844); conditions: rat; strain Fischer 344; males; by gavage; site: colon; lesion: one or several types; types not named; dosed 50 weeks; study length 104 weeks
measured_endpoint: TD50

Input: So what's the measured TD50 for this one? "CCCCCCN(N=O)C(N)=O"
Output: 2.27 mg/kg/day

* * *

system: rodent lifetime carcinogenesis bioassay, tumor incidence TD50; test: carcinogenic potency in animals, long-term in vivo studies, CPDB compilation (AID 1745844); conditions: mouse; strain Charles River CD1; males; in drinking water; site: any site (literature study); lesion: malignant tumor; dosed 135 weeks; study length 159 weeks
Activity calls are given as the source filed them. The rule behind the calls is not given here.
measured_endpoint: TD50

Input: So what's the measured TD50 for this one? "[CH3][Hg][Cl]"
Output: 9.64 mg/kg/day (inactive)

* * *

test system: rodent lifetime carcinogenesis bioassay, tumor incidence TD50; assay: carcinogenic potency in animals, long-term in vivo studies, CPDB compilation (AID 1745844); conditions: rat; strain Fischer 344; females; in feed; site: any site (literature study); lesion: several types; types named in the paper; dosed 27 weeks; study length 104 weeks
measured_endpoint: TD50 (mg/kg/day)
Express the result in mg/kg/day but write the number alone.

Input: Form field - read-out: TD50; system: rodent lifetime carcinogenesis bioassay, tumor incidence TD50; submitted item: "COc1ccccc1[N+](=O)[O-]"
Output: 10.7

* * *

system: rodent lifetime carcinogenesis bioassay, tumor incidence TD50; experiment: carcinogenic potency in animals, long-term in vivo studies, CPDB compilation (AID 1745844); settings: mouse; strain B6C3F1; males; in feed; site: kidney; lesion: several types; types named in the paper; dosed 103 weeks; study length 103 weeks
measured_endpoint: TD50 (mg/kg/day)
Express the result in mg/kg/day but write the number alone.

Input: So what's the measured TD50 for this one? "COP(=O)(OC)OC(=CCl)c1cc(Cl)c(Cl)cc1Cl"
Output: 4420
